test system: 697; experiment: CellTiter-Glo cell viability; assay type: cell-based; conditions: Homo sapiens; overnight, n = 6, ± SEM; read-out: Compound EC50, 697 (cell viability)
Consider the following compounds; for each one, report its EC50.
Numbers only, in µM.

{"columns": ["COMPOUND", "EC50 (µM)"],
 "data": [
  ["C[C@H]1[C@H](OC(=O)CCC(=O)O)O[C@@H]2O[C@@]3(C)CC[C@H]4[C@H](C)CC[C@@H]1[C@@]24OO3 [Artesunate]", 99.6],
  ["C[C@H]1[C@@H](O)O[C@@H]2O[C@@]3(C)CC[C@H]4[C@H](C)CC[C@@H]1[C@@]24OO3 [Dihydroartemisinin]", 55.5]
]}

Now consider the entry below.
Exam item: Find EC50 (697) for the entry CN(C)C(=O)CCSC(SCCC(=O)O)c1cccc(/C=C/c2ccc3ccc(Cl)cc3n2)c1 (stereo not drawn)
Marked response: 126

These data points were gathered from paper PMC5085131.
